The entries below are paired with their reported differential viability (reversal).
assay.method.text: MRP1 drug-resistance reversers in H69AR cells – cell-based, doxorubicin co-treatment, pilot screen (AID 601)
study.conditions: H69AR cells + 2 uM doxorubicin, CellTiter-Glo, 72 h; at 10 µM; hits give high values
measured.endpoint: differential viability (reversal) (%)

1) COCCCNC(=O)c1ccc(CS(=O)(=O)c2ccc(OC)cc2)o1
4.5
2) CC1=C(C(N)=O)C(c2ccccn2)n2nc(SCc3ccccc3)nc2N1 (stereo not given)
-2.02
3) Cc1cc(NC(=O)COc2cccc(C)c2C)no1
15.6
4) COc1cccc(C2=NOC(C(=O)N3CCc4ccccc4C3)C2)c1 (stereo not given)
14.1
5) CCn1cc(C(=O)NCCC2=CCCCC2)c(=O)c2cc(S(=O)(=O)N(C)C)ccc21
9.64
6) O=C(NC(=O)c1cccc(F)c1)OC[C@@H]1CCCN2CCCC[C@H]12
0.59
7) COc1cccc(NC(=O)C2CCCN(S(=O)(=O)c3cccc4cccnc34)C2)c1 (stereo not given)
-6.64
8) CC(=O)OCCNc1cc(N2CCN(C)CC2)c2noc3c2c1C(=O)c1ccccc1-3
-8.49
9) O=C(Nc1cnn(Cc2ccc(Cl)cc2Cl)c1)c1noc2c1CCCC2
2.57
10) COc1cc(OC)c2c(c1)OC(c1ccc(OC)c(OC)c1)C(O)C2=O (stereo not given)
12.9
11) Cn1c(=O)c2c(nc(SCCCC#N)n2Cc2c(F)cccc2Cl)n(C)c1=O
61.3
12) CC1CCc2nn(CC(=O)Nc3ccc(F)cc3F)cc2C1 (stereo not given)
14.7
13) COc1cc(C(=O)Nc2cccc(-c3nncn3C)c2)cc(OC)c1OC
7.79
14) CCCCn1c(CN2CCN(c3ccccc3)CC2)nc2c1c(=O)n(C)c(=O)n2C
19.2
15) O=C(CN1CCN(Cc2ccccc2F)C1=O)NCc1cccnc1
17
16) Cc1sc2nc(SCC(=O)NCCO)n(C)c(=O)c2c1C
-6.7
17) CC1=C(C(=O)Nc2ccc(F)cc2)C(c2cccc(C)c2)n2nc(CCCO)nc2N1 (stereo not given)
1.5
18) O=C(Nc1ccc(N2C(=O)C3C4C=CC(C4)C3C2=O)cc1)Nc1nncs1 (stereo not given)
2.15
19) Cc1cc(=O)oc2c1ccc1oc(/C(=N/O)c3ccccc3)c(C)c12
-17.2
20) CCOC(=O)N1CCN(C(=O)CSc2nnc(-c3cccc(Cl)c3)o2)CC1
7.46
21) CCCSC1=C(C#N)C(c2cc(OC)ccc2OC)CC(=O)N1 (stereo not given)
5.96
22) CC1=C(C(=O)OCc2ccccc2)C(c2ccco2)n2ncnc2N1 (stereo not given)
23
23) O=C(NCCN1CCN(c2ccccc2)CC1)c1ccc(NC(=O)C2CCCO2)cc1 (stereo not given)
8.13
24) Cc1nnc(SCC(=O)NCc2ccccc2)s1
1.61
25) CCOC(=O)N1CCC(Nc2ncnc3c2cnn3-c2ccc(C)cc2C)CC1
42.5
26) COc1ccccc1CNC(=O)CCn1c(=O)[nH]c2ccsc2c1=O
4.96
27) COC(=O)c1oc2ccc(Br)cc2c1NC(C)=O
3.47
28) CCOC(=O)C1CCN(c2c(NC3CCCc4ccccc43)c(=O)c2=O)CC1 (stereo not given)
0.54
29) OC(CNCCc1ccccc1)c1ccccc1 (stereo not given)
9.8
30) COc1ccccc1Oc1ccc(S(=O)(=O)N2CCOCC2)cc1S(=O)(=O)N1CCOCC1
-4.58
31) O=C1CC(c2cccnc2)c2cc3c(cc2N1)OCO3 (stereo not given)
18.4
32) Cc1ccc(S(=O)(=O)N(CC(=O)N2CCC(C(N)=O)CC2)Cc2ccc(F)cc2)cc1
11.3
33) O=C1CCCc2c1cc(C(=O)NCCCN1CCOCC1)c(=O)n2-c1ccc(Cl)cc1
10.6
34) COc1ccccc1OCCNC(=O)c1cccs1
9.52
35) CCCCn1c(NCc2ccccc2O)nc2ccccc21
4.67
36) CC(C)(C)NC(=O)Cn1c(=O)oc2ccc(Cl)cc21
28.8
37) Oc1c(C(c2ccccc2)N2CCc3ccccc3C2)sc2ncnn12 (stereo not given)
-0.02
38) COc1ccc(C2C(C#N)=C(C)NC3=C2C(=O)CC(C)(C)C3)c(OC)c1 (stereo not given)
23.5
39) COCCN(CCOC)Cc1c(C)[nH]c2ccccc2c1=O
-4.47
40) O=C(c1ccco1)N1CCN(C(=O)c2sccc2-c2ccccc2)CC1
-6.79
41) CCCOC(=O)c1[nH]c2c(c1C)C(=O)CC(c1cc(OC)c(OC)c(OC)c1)C2 (stereo not given)
9.54
42) COc1ccc(C)cc1NC(=O)C1CCN(S(=O)(=O)c2cccc3cccnc23)CC1
4.79
43) O=C(NC1(C(=O)NC2CCCCC2)CCCCC1)c1ccc2c(c1)OCO2
4.42
44) COc1ccc(-c2nc(CSCC(=O)N3CCN(c4cccc(C)c4)C(C)C3)c(C)o2)cc1OC (stereo not given)
-5.97
45) COC(=O)CSC1=C(C#N)C(c2ccc(F)cc2)CC(=O)N1 (stereo not given)
0.195

====

assay.method.text: H69AR cell proliferation blockers – human, duplicate replicates, primary screen (AID 580);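 further: 100% = mean luminescence of untreated wells and 0% = no signal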
study.conditions: H69AR lung tumor cells viability, ATP luminescence, 72 h; at 10 µM; hits give low values
Could you please mark Fulfilled for values of viability below 90% and Not fulfilled for values at or above it?

1. COc1ccc(Cl)cc1S(=O)(=O)N1CCN(c2ccc(F)cc2)CC1
Fulfilled
2. CC(CC(=O)NC1CCSC1=O)c1ccccc1 (stereo unspecified)
Not fulfilled
3. O=C(CCN1C(=O)c2ccccc2C1=O)Nc1ccc(F)cc1
Not fulfilled
4. CCn1c(SCC(=O)Nc2cccc(C)c2)nc2c(c1=O)SC(C)C2 (stereo unspecified)
Fulfilled
5. C=C(C)c1cccc(C(C)(C)NC(=O)NCC2CCCO2)c1 (stereo unspecified)
Not fulfilled
6. CCOC(=O)c1cc2c(=O)n3ccccc3nc2n(CC(C)C)c1=NC(=O)c1ccco1
Fulfilled
7. Cc1cccc(N2CCN(C(=O)Cn3nc(Cc4ccncc4)c4ccccc4c3=O)CC2)c1C
Fulfilled
8. CCOC(=O)c1ccccc1NC(=O)c1ccc2c(=O)n3c(nc2c1)CCCCC3
Fulfilled
9. Cn1c(=O)oc2cc(S(=O)(=O)N3CCN(c4ccccn4)CC3)ccc21
Fulfilled

====

assay.method.text: MRP1 drug-resistance reversers in H69AR cells – cell-based, doxorubicin co-treatment, pilot screen (AID 601)
study.conditions: H69AR cells + 2 uM doxorubicin, CellTiter-Glo, 72 h; at 10 µM; hits give high values
Measured differential viability (reversal) accompanies every entry in the list below.
measured.endpoint: differential viability (reversal) (%)

1. Cc1cccc(OCC(=O)N2CCN(C(=O)Cc3ccccc3)CC2)c1
-0.125
2. COc1ccc(C2CC(c3ccco3)n3ncnc3N2)cc1 (stereo unspecified)
-3.17
3. CCOC(=O)c1c(C)n(C)c2c(C)cc(O)c(OC(C)=O)c12
13.4
4. CC(=O)N(C(C)=O)c1ncc2c([nH]c3ccccc32)c1C#N
-20.5
5. Cc1nnc(N2C(=O)C(O)=C(C(=O)c3ccco3)C2c2ccc(F)cc2)s1 (stereo unspecified)
8.77
6. CCNc1ccc(C(=O)OCC)cc1NC(=O)c1cc(S(=O)(=O)N2CCOCC2)ccc1C
8.02
7. C(=N\n1cnnc1)/c1cccc(OCCOc2ccccc2)c1
4.15
8. Cc1cc(NS(=O)(=O)c2ccc(NC(=O)COc3ccccc3C(C)C)cc2)no1
1.26
9. COc1ccccc1S(=O)(=O)Cc1ccc(C(=O)N2CCN(c3ccc(C)cc3)C(C)C2)o1 (stereo unspecified)
-48.4
10. Cc1cc(C(N)=O)c2cc(Br)ccc2n1
8
11. CC1CCN(c2oc(-c3ccccc3F)nc2C#N)CC1
7.56

====

assay.method.text: viability of HCT116 without oncogenic beta-catenin – human colon tumor cells, pilot screen (AID 823);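 further: 0% = wells killed by 20 µM Hyamine and 100% = untreated DMSO cell wells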
study.conditions: HCT116 beta-catenin knockout viability, CellTiter-Glo, 60 h; at 10 µM; hits give low values
Results filed as inconclusive are left out.
measured.endpoint: viability (%)

1. CCCC(=O)NCCCc1nc2ccccc2n1C(C)C
102
2. CCOc1cc(-c2nc(-c3ccc(OC)cc3)no2)cc(OCC)c1OCC
93.9
3. Cc1noc(C)c1S(=O)(=O)N1CCN(C(c2ccccc2)c2ccc(Cl)cc2)CC1 (stereo unspecified)
66.3
4. O=C(NCCN1C(=O)C2C3C=CC(C3)C2C1=O)Nc1ccccn1 (stereo unspecified)
107
5. CCN(CC)CCNC(=O)c1ccc(CS(=O)(=O)c2ccc(Br)cc2)o1
97.1
6. COc1ccccc1CNC(=O)CCn1c(=O)[nH]c2ccsc2c1=O
101
7. COC(=O)c1ccsc1NC(=O)CN1C(=O)CCC1=O
100
8. COc1ccc(CN2C(=O)CN=C2Nc2ccc(C)cc2C)cc1
101
9. Cc1ccc(C2=[N+]([O-])C3(CCCCC/C3=N\O)N(O)C2(C)C)o1 (stereo unspecified)
99
10. Nc1c(C(=O)Nc2ccc(Cl)cc2)oc2ccccc12
75.3
11. CC(C)(NC(=O)N1CCCC1)c1cccc(C(C)(C)NC(=O)N2CCCC2)c1
100
